// provenance: patent US20210186879A1

# reported Lung tissue DOX; entries follow
Test: In vivo distribution of doxorubicin in lung and blood serum of Wistar rats
Conditions: 5 mg/kg i.v. single bolus, 4 hours, ± SD
Dear colleague, please return just the value in µg/kg, with no unit written.

| COMPOUND | OUTPUT UNIT | Lung tissue DOX |
| --- | --- | --- |
| CCCCCCCCCCCCCCOS(=O)(=O)O.COc1cccc2c1C(=O)c1c(O)c3c(c(O)c1C2=O)CC(O)(C(=O)CO)CC3OC1CC(N)C(O)C(C)O1 (stereo not shown) | µg/kg | 3.17 |
| CCCCCCCCCCCCS(=O)(=O)O.COc1cccc2c1C(=O)c1c(O)c3c(c(O)c1C2=O)CC(O)(C(=O)CO)CC3OC1CC(N)C(O)C(C)O1 (stereo not shown) | µg/kg | 0.88 |

Field request: Lung tissue DOX | item: CCCCCCCCCCCCOS(=O)(=O)O.COc1cccc2c1C(=O)c1c(O)c3c(c(O)c1C2=O)C[C@@](O)(C(=O)CO)C[C@@H]3O[C@H]1C[C@H](N)[C@H](O)[C@H](C)O1
0.77

Field request: Lung tissue DOX | item: CCCCCCCCCCCCCCCCS(=O)(=O)O.COc1cccc2c1C(=O)c1c(O)c3c(c(O)c1C2=O)CC(O)(C(=O)CO)CC3OC1CC(N)C(O)C(C)O1 (stereo not shown)
6.11
